- protocol: Selectivity index, ratio of CC50 for human C8166 cells to EC50 for wild type HIV1 LAI-3B
- Assay type: toxicity, cell-based
- condition-description: read-out: Ratio CC50/EC50
readout-kind: selectivity ratio

compound_structure_string=O=C(O)c1cn(Cc2ccccc2)c2ccc(Cc3ccccc3F)c(O)c2c1=O readout_kind="selectivity ratio" result=7.49
compound_structure_string=O=C(O)c1cn(Cc2cccc(F)c2)c2ccc(Cc3cccc(Cl)c3F)c(O)c2c1=O readout_kind="selectivity ratio" result=14
compound_structure_string=O=C(O)c1cn(-c2ccccc2)c2ccc(Cc3cccc(Cl)c3F)c(O)c2c1=O readout_kind="selectivity ratio" result=1.26
compound_structure_string=O=C(O)c1cn(Cc2ccc(F)c(F)c2)c2ccc(Cc3cccc(Cl)c3F)c(O)c2c1=O readout_kind="selectivity ratio" result=12.4
compound_structure_string=O=C(O)c1cn(Cc2ccccc2F)c2ccc(Cc3ccccc3F)c(O)c2c1=O readout_kind="selectivity ratio" result=10.4
compound_structure_string=O=C(O)c1cn(Cc2ccccc2)c2ccc(Cc3cccc(Cl)c3F)c(O)c2c1=O readout_kind="selectivity ratio" result=6.42
compound_structure_string=O=C(O)c1cn(-c2ccc(Br)cc2)c2ccc(Cc3cccc(Cl)c3F)c(O)c2c1=O readout_kind="selectivity ratio" result=11.9
compound_structure_string=O=C(O)c1cn(Cc2ccc(F)cc2)c2ccc(Cc3cccc(Cl)c3F)c(O)c2c1=O readout_kind="selectivity ratio" result=7.04
compound_structure_string=O=C(O)c1cn(Cc2ccccc2F)c2ccc(Cc3cccc(Cl)c3F)c(O)c2c1=O readout_kind="selectivity ratio" result=13.7

The measured values listed here are drawn from ChEMBL document CHEMBL1817559.
